- TGT: ATP-dependent translocase ABCB1 (Homo sapiens, UniProt P08183)
- Sequence (P08183 whole entry): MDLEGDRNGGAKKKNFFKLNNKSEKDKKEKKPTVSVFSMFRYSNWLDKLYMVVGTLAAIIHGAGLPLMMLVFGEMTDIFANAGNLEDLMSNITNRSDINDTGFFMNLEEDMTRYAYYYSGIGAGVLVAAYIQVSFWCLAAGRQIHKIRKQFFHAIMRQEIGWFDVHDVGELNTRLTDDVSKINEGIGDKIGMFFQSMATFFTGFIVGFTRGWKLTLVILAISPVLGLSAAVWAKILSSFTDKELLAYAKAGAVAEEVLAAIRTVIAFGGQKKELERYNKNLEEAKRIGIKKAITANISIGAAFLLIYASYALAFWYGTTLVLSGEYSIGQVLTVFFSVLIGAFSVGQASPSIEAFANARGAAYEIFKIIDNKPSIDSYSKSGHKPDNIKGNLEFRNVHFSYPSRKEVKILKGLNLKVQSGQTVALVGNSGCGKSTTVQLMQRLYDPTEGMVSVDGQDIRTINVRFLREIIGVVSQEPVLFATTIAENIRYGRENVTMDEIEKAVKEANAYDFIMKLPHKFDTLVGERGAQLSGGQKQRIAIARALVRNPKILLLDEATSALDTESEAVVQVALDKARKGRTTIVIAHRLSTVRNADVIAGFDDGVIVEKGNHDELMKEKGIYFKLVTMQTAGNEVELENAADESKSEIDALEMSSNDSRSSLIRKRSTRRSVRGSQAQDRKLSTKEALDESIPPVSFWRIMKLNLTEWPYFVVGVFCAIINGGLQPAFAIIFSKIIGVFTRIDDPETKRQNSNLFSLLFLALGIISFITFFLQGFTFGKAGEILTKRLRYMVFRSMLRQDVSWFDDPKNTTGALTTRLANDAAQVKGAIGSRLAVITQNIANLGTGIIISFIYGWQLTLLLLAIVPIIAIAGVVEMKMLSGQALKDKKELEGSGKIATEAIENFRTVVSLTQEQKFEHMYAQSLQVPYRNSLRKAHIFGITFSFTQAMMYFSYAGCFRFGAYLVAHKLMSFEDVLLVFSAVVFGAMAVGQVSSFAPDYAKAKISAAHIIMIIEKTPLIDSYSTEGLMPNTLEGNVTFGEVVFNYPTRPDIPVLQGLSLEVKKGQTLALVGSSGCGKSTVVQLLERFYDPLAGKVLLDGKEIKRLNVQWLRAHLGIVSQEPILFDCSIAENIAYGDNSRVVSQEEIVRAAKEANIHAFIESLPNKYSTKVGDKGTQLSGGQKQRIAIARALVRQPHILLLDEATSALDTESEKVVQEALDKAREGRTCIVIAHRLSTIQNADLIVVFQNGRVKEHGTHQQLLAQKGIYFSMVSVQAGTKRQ
- PROCEDURE DETAILS: Inhibition of full length human ABCB1 expressed in Flp-In-293 cells at 2.5 uM incubated for 30 mins by calcein-AM uptake assay relative to control
- Type: cell-based
- MEASUREMENT CONDITIONS: 0.5 h
Listing: fold change (FC) of selected compounds
The response must contain the number and no unit.

[
  {
    "ENTRY SMILES": "O=c1c(-c2cccs2)coc2cc3occ(-c4cccs4)c(=O)c3c(O)c12",
    "METRIC NAME": "fold change (FC)",
    "RESULT": 0.61
  },
  {
    "ENTRY SMILES": "O=c1c(-c2cccc(Cl)c2)coc2cc3occ(-c4cccc(Cl)c4)c(=O)c3c(O)c12",
    "METRIC NAME": "fold change (FC)",
    "RESULT": 0.5
  },
  {
    "ENTRY SMILES": "Cc1ccccc1-c1coc2cc3occ(-c4ccccc4C)c(=O)c3c(O)c2c1=O",
    "METRIC NAME": "fold change (FC)",
    "RESULT": 0.87
  },
  {
    "ENTRY SMILES": "COc1cccc(-c2coc3cc4occ(-c5cccc(OC)c5)c(=O)c4c(O)c3c2=O)c1",
    "METRIC NAME": "fold change (FC)",
    "RESULT": 1
  },
  {
    "ENTRY SMILES": "COc1cc(-c2coc3cc4occ(-c5cc(OC)c(OC)c(OC)c5)c(=O)c4c(O)c3c2=O)cc(OC)c1OC",
    "METRIC NAME": "fold change (FC)",
    "RESULT": 0.8
  }
]

Q: Please look up its fold change (FC): `O=c1c(-c2ccc(OC(F)(F)F)cc2)coc2cc3occ(-c4ccc(OC(F)(F)F)cc4)c(=O)c3c(O)c12`
Ans: 0.62

Q: Thanks! And `O=c1c(-c2ccccc2)coc2cc3occ(-c4ccccc4)c(=O)c3c(O)c12` ?
Ans: 1.04

Q: Thanks! And `O=c1c(-c2cccc3ccccc23)coc2cc3occ(-c4cccc5ccccc45)c(=O)c3c(O)c12` ?
Ans: 0.72

Q: Thanks! And `Cc1cccc(-c2coc3cc4occ(-c5cccc(C)c5)c(=O)c4c(O)c3c2=O)c1` ?
Ans: 0.86

Q: Thanks! And `O=c1c(-c2ccccc2C(F)(F)F)coc2cc3occ(-c4ccccc4C(F)(F)F)c(=O)c3c(O)c12` ?
Ans: 1.32

Q: Thanks! And `Cc1cccc(-c2coc3c(c(O)cc4occ(-c5cccc(C)c5)c(=O)c43)c2=O)c1` ?
Ans: 1.58

Q: Thanks! And `O=c1c(C2CC2)coc2cc3occ(C4CC4)c(=O)c3c(O)c12` ?
Ans: 0.86

Q: Thanks! And `O=c1c(-c2cccc(Cl)c2)coc2c1c(O)cc1occ(-c3cccc(Cl)c3)c(=O)c12` ?
Ans: 0.83

Q: Thanks! And `O=c1c(-c2ccccc2Cl)coc2c1c(O)cc1occ(-c3ccccc3Cl)c(=O)c12` ?
Ans: 0.98

Q: Thanks! And `O=c1c(-c2cccc(C(F)(F)F)c2)coc2c1c(O)cc1occ(-c3cccc(C(F)(F)F)c3)c(=O)c12` ?
Ans: 1.1

Q: Thanks! And `O=c1c(-c2cccs2)coc2c1c(O)cc1occ(-c3cccs3)c(=O)c12` ?
Ans: 0.88

Q: Thanks! And `COc1ccc(-c2coc3c(c(O)cc4occ(-c5ccc(OC)c(OC)c5)c(=O)c43)c2=O)cc1OC` ?
Ans: 1.45

Q: Thanks! And `O=c1c(-c2c(F)cccc2Cl)coc2c1c(O)cc1occ(-c3c(F)cccc3Cl)c(=O)c12` ?
Ans: 0.66
